For each record, write down the corresponding kon.
# assaySystem: T1, V-Set And Immunoglobulin Domain Containing 4 (VSIG4) (human, UniProt Q9Y279 20-283, limits assumed)
# T1 construct: also called CRIg; Z39Ig
# T1 sequence (looked up): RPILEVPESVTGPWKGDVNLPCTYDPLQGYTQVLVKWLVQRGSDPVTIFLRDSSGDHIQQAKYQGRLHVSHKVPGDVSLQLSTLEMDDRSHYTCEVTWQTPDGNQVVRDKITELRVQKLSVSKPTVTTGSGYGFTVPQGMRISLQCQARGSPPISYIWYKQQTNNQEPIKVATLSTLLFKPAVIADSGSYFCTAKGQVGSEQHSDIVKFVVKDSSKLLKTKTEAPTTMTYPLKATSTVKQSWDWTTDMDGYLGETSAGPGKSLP
# assay: kinetic affinity measurement; method not stated
Kindly report the value followed by its unit.

A selection of reference data follows.
A2.3 antibody (EU103_T01.02S) (antibody, V domains shown, Generated from A2) VH: QVTLVESGPTLVKPGQTLTLTCTFSGISLTTSGMGVGWIRQPPGKALEWLADIFWDDNKYYNPSLKGRLTITKDTSKNQVYLTMTNMDPVDTATYYCVRVYYKNDGYFDVWGKGTTVTVSS VL: DIVLTQSPLSLPVTLGQPASISCRASKSVTTSGYSFMHWYQQRPGQSPRLLIYLASNLEPGVPDRFSGSGSGTDFTLKIFRVEAEDVGVYYCQQSGELPYTFGQGTKLEIK; 404000 M⁻¹ s⁻¹
A1 antibody (EU103_T01.01) (antibody, V domains shown) VH: QVTLKESGPTLVKPTQTLTLTCTFSGISLTTSGMGVGWIRQPPGKALEWLADIFWDDNKYYNPSLKSRLTITKDTSKNQVVLTMTNMDPVDTATYYCVRVYYKNDGYFDVWGKGTTVTVSS VL: DIVLTQSPLSLPVTLGQPASISCRASKSVTTSGYSFMHWYQQRPGQSPRLLIYLASNLEPGVPDRFSGSGSGTDFTLKISRVEAEDVGVYYCQQSGELPYTFGQGTKLEIK; 378000 M⁻¹ s⁻¹

Inquiry: Note kon for the binder shown: A2 antibody (EU103_T01.02) (antibody, V domains shown) VH: QVTLKESGPTLVKPTQTLTLTCTFSGISLTTSGMGVGWIRQPPGKALEWLADIFWDDNKYYNPSLKSRLTITKDTSKNQVVLTMTNMDPVDTATYYCVRVYYKNDGYFDVWGKGTTVTVSS VL: DIVLTQSPLSLPVTLGQPASISCRASKSVTTSGYSFMHWYQQRPGQSPRLLIYLASNLEPGVPDRFSGSGSGTDFTLKIFRVEAEDVGVYYCQQSGELPYTFGQGTKLEIK
Reply text: 360000 M⁻¹ s⁻¹

meta.source: patent US20200291126A1
